Where do these numbers come from? They come from patent US8558011B2.

Answer each item with its documented % I (0.5 μM).
target or system: canine TRPM8 (Canis lupus familiaris, UniProt Q1A7N1)
Construct: expressed in transfected cells
Sequence (Q1A7N1 1-1104): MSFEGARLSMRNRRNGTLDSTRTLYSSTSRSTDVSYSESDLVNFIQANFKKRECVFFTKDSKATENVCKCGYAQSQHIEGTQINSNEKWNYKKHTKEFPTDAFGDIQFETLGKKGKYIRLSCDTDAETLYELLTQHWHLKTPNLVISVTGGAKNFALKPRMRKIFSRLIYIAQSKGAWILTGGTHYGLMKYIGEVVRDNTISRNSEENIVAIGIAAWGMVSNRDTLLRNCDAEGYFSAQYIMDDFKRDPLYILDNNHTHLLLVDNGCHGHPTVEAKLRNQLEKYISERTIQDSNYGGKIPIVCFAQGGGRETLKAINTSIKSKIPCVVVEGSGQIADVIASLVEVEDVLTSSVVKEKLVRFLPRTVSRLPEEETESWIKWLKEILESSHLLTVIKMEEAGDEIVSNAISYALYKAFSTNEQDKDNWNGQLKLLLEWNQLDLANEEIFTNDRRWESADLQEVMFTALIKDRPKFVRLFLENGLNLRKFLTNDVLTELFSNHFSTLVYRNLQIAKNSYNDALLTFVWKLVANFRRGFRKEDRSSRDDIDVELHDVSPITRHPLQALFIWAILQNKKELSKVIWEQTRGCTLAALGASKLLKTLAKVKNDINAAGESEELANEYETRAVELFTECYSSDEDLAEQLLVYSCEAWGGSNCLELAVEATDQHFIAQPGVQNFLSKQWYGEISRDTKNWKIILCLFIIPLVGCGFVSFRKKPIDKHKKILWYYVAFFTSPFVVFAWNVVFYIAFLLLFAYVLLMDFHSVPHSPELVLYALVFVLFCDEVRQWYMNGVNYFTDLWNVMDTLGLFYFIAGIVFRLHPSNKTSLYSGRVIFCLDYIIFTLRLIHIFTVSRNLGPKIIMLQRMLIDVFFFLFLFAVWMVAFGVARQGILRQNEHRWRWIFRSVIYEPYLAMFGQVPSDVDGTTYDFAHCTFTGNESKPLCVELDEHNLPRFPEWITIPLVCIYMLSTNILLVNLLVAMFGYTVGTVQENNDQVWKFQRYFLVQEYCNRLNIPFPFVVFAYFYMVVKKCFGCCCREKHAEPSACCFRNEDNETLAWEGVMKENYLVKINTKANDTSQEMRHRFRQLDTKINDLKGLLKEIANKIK
method: In Vitro Canine TRPM8 Functional Assay (Ca2+-sensitive fluorescent dye, icilin activation, FLIPR/FDSS)
Assay type: cell-based
reported conditions: compound at 0.5 μM; HEK293 cells stably expressing canine TRPM8, icilin activation
// units = %; emit number, no label

# % I (0.5 μM) lookup, item CCOP(=O)(OCC)C(Cc1cccc(Cl)c1)c1sc2ccccc2c1Cl (stereo not drawn) [Cpd 290]
103

# % I (0.5 μM) lookup, item CCOP(=O)(OCC)C(Cc1cccc(C(F)(F)F)c1Cl)c1sc2ccccc2c1Br (stereo not drawn) [Cpd 151]
103

# % I (0.5 μM) lookup, item CC(C)OP(=O)(OC(C)C)[C@H](Cc1ccc(F)c(F)c1)c1sc2ccccc2c1Br [Cpd 235]
56

# % I (0.5 μM) lookup, item CCOP(=O)(OCC)C(Cc1cccc(C(F)(F)F)c1Cl)c1sc2ccccc2c1Cl (stereo not drawn) [Cpd 280]
101

# % I (0.5 μM) lookup, item CC(=O)OCCOP(=O)(OCCOC(C)=O)C(Cc1ccc(F)c(F)c1)c1sc2ccccc2c1Br (stereo not drawn) [Cpd 213]
100

# % I (0.5 μM) lookup, item CC(C)OP(=O)(OC(C)C)C(Cc1ccc(Cl)cc1)c1sc2ccccc2c1Br (stereo not drawn) [Cpd 288]
103

# % I (0.5 μM) lookup, item CCOP(=O)(OCC)C(Cc1ccc(OC)c(F)c1)c1sc2ccccc2c1Br (stereo not drawn) [Cpd 158]
101

# % I (0.5 μM) lookup, item CCOP(=O)(OCC)C(Cc1cccc(C(F)(F)F)c1F)c1sc2ccccc2c1Cl (stereo not drawn) [Cpd 281]
102

# % I (0.5 μM) lookup, item COc1ccc(CC(c2sc3ccccc3c2Br)P(=O)(OC(C)C)OC(C)C)cc1F (stereo not drawn) [Cpd 159]
103

# % I (0.5 μM) lookup, item CC(C)OP(=O)(OC(C)C)C(Cc1ccc(F)c(Cl)c1)c1sc2ccccc2c1Br (stereo not drawn) [Cpd 248]
104

# % I (0.5 μM) lookup, item CCOP(=O)(OCC)C(Cc1ccc(SC(F)(F)F)cc1)c1sc2ccccc2c1Cl (stereo not drawn) [Cpd 283]
103

# % I (0.5 μM) lookup, item CCOP(=O)(OCC)C(Cc1ccc(C(F)(F)F)cc1F)c1sc2ccccc2c1Br (stereo not drawn) [Cpd 150]
103

# % I (0.5 μM) lookup, item CC(C)OP(=O)(OC(C)C)C(Cc1cc(Cl)ccc1F)c1sc2ccccc2c1Br (stereo not drawn) [Cpd 308]
103

# % I (0.5 μM) lookup, item CCOP(=O)(OCC)C(Cc1ccc(F)c(F)c1)c1sc2ccccc2c1-c1cccc(C(N)=O)c1 (stereo not drawn) [Cpd 218]
79

# % I (0.5 μM) lookup, item COc1ccc(CC(c2sc3ccccc3c2Br)P(=O)(OC(C)C)OC(C)C)c(F)c1 (stereo not drawn) [Cpd 163]
103

# % I (0.5 μM) lookup, item COc1cc(CC(c2sc3ccccc3c2Br)P(=O)(OC(C)C)OC(C)C)c(F)cc1Cl (stereo not drawn) [Cpd 165]
102

# % I (0.5 μM) lookup, item CC(C)OP(=O)(OC(C)C)C(Cc1ccc(F)c(C(F)(F)F)c1)c1sc2cccc(F)c2c1Br (stereo not drawn) [Cpd 222]
103

# % I (0.5 μM) lookup, item CCOP(=O)(OCC)C(Cc1cc(Cl)ccc1F)c1sc2ccccc2c1Cl (stereo not drawn) [Cpd 305]
102
